system: phosphorylation of AKT (pAKT) in T47D cells expressing mutant PI3Ka (H1047R); experiment: In vitro cell pAKT (Ser473) HTRF, T47D cells; assay type: cell-based; details: cellular pAKT, T47D cells, mutant PI3Ka (H1047R), 6 hours; read-out: Avg T-47D IC50
pIC50: −log10 of the molar value.
readout_label: pIC50

Worked examples, 10 compounds total:
compound | pIC50
Cc1cc([C@@H](C)Nc2ccccc2C(=O)O)c2cc(-c3cnc(C(C)(F)F)cn3)n(C)c(=O)c2c1 | 6.30 to 9.00
Cc1cc(C(C)Nc2ccccc2C(=O)O)c2cc(N3Cc4cc(F)cc(F)c4C3)n(C)c(=O)c2c1 (single isomer, unassigned) [Example 103] | 6.30 to 9.00
Cc1cc([C@@H](C)Nc2cccc(F)c2C(=O)O)c2cc(N3CCN(c4cncnc4C)CC3)n(C)c(=O)c2c1 | 5.70 to 6.30
CC(Nc1ccccc1C(=O)O)c1cc(F)cc2c(=O)n(C)c(-c3cnc(OC4CC4)c(F)c3)c(F)c12 (centres unmarked) | 6.30 to 9.00
CC(Nc1ccccc1C(=O)O)c1cc(F)cc2c(=O)n(C)c(-c3ccc(OC4CC(F)C4)nc3)cc12 (centres unmarked) [Example 447] | 6.30 to 9.00
C[C@@H](Nc1ccccc1C(=O)O)c1cc(F)cc2c(=O)n(C)c(C34CC(C(F)(F)F)(C3)C4)cc12 | 6.30 to 9.00
Cc1cc(C(C)Nc2ccccc2C(=O)O)c2cc(N3CCN4C(=O)CCC4C3)n(C)c(=O)c2c1 (single isomer, unassigned) [Example 123] | < 4.82
Cc1cc([C@@H](C)Nc2ccccc2C(=O)O)c2cc(C3C[C@H]3C(C)C)n(C)c(=O)c2c1 (single isomer, unassigned) | 6.30 to 9.00
Cc1cc(C(C)Nc2ccccc2C(=O)O)c2cc(N3CCN4CCC[C@H]4C3)n(C)c(=O)c2c1 (single isomer, unassigned) [Example 138] | < 4.82
Cc1cc([C@@H](C)Nc2ccccc2C(=O)O)c2cc(-c3cc(F)c4nn(C)cc4c3)n(C)c(=O)c2c1 | 6.30 to 9.00

# pIC50 lookup, item Cc1cc(C(C)Nc2cccc(C#N)c2C(=O)O)c2cc(N3CCN(CC(F)(F)F)CC3)n(C)c(=O)c2c1 (centres unmarked)
4.82 to 5.70

Recorded pIC50 of Cc1cc([C@@H](C)Nc2ccc(F)nc2C(=O)O)c2cc(-c3cnc(C(F)(F)F)nc3)n(C)c(=O)c2c1 , please.
5.70 to 6.30

What value of measured pIC50 is listed for Cc1cc(C(C)Nc2ccccc2C(=O)O)c2cc(N3CCN(CC(F)(F)F)CC3)n(C)c(=O)c2c1 (single isomer, unassigned) [Example 9] ?
4.82 to 5.70

Using the record for Cc1cc(C(C)Nc2ccccc2C(=O)O)c2cc(N3C[C@@H]4CN(CC(F)(F)F)C[C@H]4C3)n(C)c(=O)c2c1 (single isomer, unassigned) [Example 109] , report its pIC50.
6.30 to 9.00

# query: pIC50 of entry C[C@@H](Nc1cccc(F)c1C(=O)O)c1cc(F)cc2c(=O)n(C)c(-c3cnc(OC4CC4)c(F)c3)cc12
6.30 to 9.00

Fill in: pIC50 of Cc1cc(C(C)Nc2ccccc2C(=O)O)c2c(F)c(C3=CCN(CC(F)(F)F)CC3)n(C)c(=O)c2c1 (single isomer, unassigned) [Example 359] is ___
6.30 to 9.00

// pIC50 lookup, key: C[C@@H](Nc1cccc(F)c1C(=O)O)c1cc(F)cc2c(=O)n(C)c(C3C[C@@H]3C(F)(F)F)cc12 (single isomer, unassigned)
6.30 to 9.00

# get_value(readout='pIC50', item= Cc1cc([C@@H](C)Nc2ccccc2C(=O)O)c2cc(N3CCN(C(C)C(F)(F)F)CC3)n(C)c(=O)c2c1 (single isomer, unassigned) )
6.30 to 9.00

I'd like to know its pIC50. The compound in question is Cc1cc(C(C)Nc2ccccc2C(=O)O)c2cc(C3=CCC(C)(C)CC3)n(C)c(=O)c2c1 (single isomer, unassigned) [Example 6]
6.30 to 9.00

// returns reported pIC50 for input Cc1cc(C(C)Nc2ccccc2C(=O)O)c2cc(N3CC4CCC(C4)C3)n(C)c(=O)c2c1 (single isomer, unassigned) [Example 10]
< 4.82
